Assay comment: in vitro
Parameters: Cytotoxicity in iPSC-derived pneumocytes, CC50
Assay setup: human, ipsc-derived pneumocytes; ASAP-0008327-001=ASAP-0011176-001; read-out: 50.0
Measured metric: CC50

What value of CC50 has been recorded for this entry: "CNCc1cc(-c2cc3c(N[C@@H](c4ccc5c(c4)S(=O)(=O)CCC5)C(C)C)ncnc3[nH]2)co1"
> 50 µM

* * *

Each entry below carries its reported perc_inhibition (% inhibition of the binding of a ligand specific for each target).
System name: H1 (h) (Homo sapiens)
Construct: purchased Eurofins Cerep (SafetyScreen44), recognised from the panel format
Sequence (P35367 whole entry): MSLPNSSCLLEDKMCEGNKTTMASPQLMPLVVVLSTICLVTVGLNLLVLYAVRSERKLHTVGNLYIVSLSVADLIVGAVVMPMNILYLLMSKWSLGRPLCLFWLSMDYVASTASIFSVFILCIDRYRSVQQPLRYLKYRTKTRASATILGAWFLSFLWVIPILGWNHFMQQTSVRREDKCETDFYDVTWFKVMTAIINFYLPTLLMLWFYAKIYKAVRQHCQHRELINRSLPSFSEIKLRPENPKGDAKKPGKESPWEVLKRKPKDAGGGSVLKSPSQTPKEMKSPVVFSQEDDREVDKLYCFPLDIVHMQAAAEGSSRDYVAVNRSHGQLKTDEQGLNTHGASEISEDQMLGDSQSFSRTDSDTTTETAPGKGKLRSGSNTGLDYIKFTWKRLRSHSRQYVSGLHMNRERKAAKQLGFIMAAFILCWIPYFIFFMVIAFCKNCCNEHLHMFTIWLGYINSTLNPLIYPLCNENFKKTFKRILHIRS
Assay comment: In vitro CEREP profiling, H1 (h) (antagonist radioligand)
Assay type: binding
Assay setup: test compound concentration 10 uM
Lab book: enter the figure in %, no units written.

// worked examples, perc_inhibition (% inhibition of the binding of a ligand specific for each target) included
{"Molecule": "CC(C)[C@H](Nc1ncnc2[nH]c(-c3cnn(C)c3C#N)cc12)c1ccc2c(n1)OCCO2 [ASAP-0010715]", "System name": "H1 (h) (Homo sapiens)", "Unit": "%", "Readout number": 5}
{"Molecule": "C[C@H](C(=O)O)[C@@H](NC(=O)c1ncnc2[nH]ccc12)c1ccc(Br)cc1 [ASAP-0014722]", "System name": "H1 (h) (Homo sapiens)", "Unit": "%", "Readout number": -8}
{"Molecule": "CC(C)[C@H](Nc1ncnc2[nH]ccc12)c1ccc2c(c1)S(=O)(=O)CCC2 [ASAP-0008674]", "System name": "H1 (h) (Homo sapiens)", "Unit": "%", "Readout number": -3}
{"Molecule": "Cn1ncc(-c2cc3c(N[C@@H](c4ccc5c(n4)OCCO5)C(C)(C)C)ncnc3[nH]2)c1C#N [ASAP-0011221]", "System name": "H1 (h) (Homo sapiens)", "Unit": "%", "Readout number": 7}
{"Molecule": "CNCc1cc(-c2cc3c(N[C@@H](c4ccc5c(c4)S(=O)(=O)CCC5)C(C)C)ncnc3[nH]2)co1 [ASAP-0011176]", "System name": "H1 (h) (Homo sapiens)", "Unit": "%", "Readout number": -3}

Hello, I am looking for reported perc_inhibition (% inhibition of the binding of a ligand specific for each target) with H1 (h) (Homo sapiens) for COc1ccc([C@H](Cc2nnn[nH]2)NC(=O)c2ncnc3[nH]ccc23)cc1 [ASAP-0015381] . Could you help?
-4

Hello, I am looking for reported perc_inhibition (% inhibition of the binding of a ligand specific for each target) with H1 (h) (Homo sapiens) for CC(C)[C@@H](Nc1ncnc2[nH]c(-c3cnn(C)c3C#N)cc12)c1ccc2c(n1)OCCO2 [ASAP-0010716] . Could you help?
0
